Listed below: Kd values for each entry.
Subject Of Test: T1, human beta CGRP (SEQ ID NO: 81) (human, not fully specified)
T1 construct: also called human βCGRP; hβCGRP
T1 peptide: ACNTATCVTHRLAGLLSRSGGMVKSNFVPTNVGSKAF
Assay Remarks: SPR, 37 C, mutein captured, CGRP analyte
Description: The Biotin CAPture Kit (GE Healthcare) was used to immobilize biotinylated lipocalin muteins to a chip surface. Muteins were biotinylated using standard NHS chemistry. […] The data were double-referenced by subtraction of the corresponding signals measured for the control channel (loaded with Biotin CAPture reagent only) and by subtraction of buffer injections from the binding responses. […]
State the value with its unit after it.

Observe how each entry below is paired with its result.
{"columns": ["Binder", "Kd"],
 "data": [
  ["lipocalin mutein SEQ ID NO: 20 (designed binder, biotinylated by NHS chemistry for capture in SPR) QDSTSDLIPAPPLSKVPLQQNFQDNQFHGKWYVVGRAGNDTLRKDKDPEKMEATIYELKEDKSYNVTDVGFVQKKCMYVIHTFVPGSQPGEFTLGNIKSYPGVTSALVRVVSTNYNQHAMVFVKLVKQNRELFEITLYGRTKELTSELKENFIRFSKSLGLPENHIVFPVPIDQCIDGSAWSHPQFEK", "4 pM"],
  ["lipocalin mutein SEQ ID NO: 21 (designed binder, biotinylated by NHS chemistry for capture in SPR) QDSTSDLIPAPPLSKVPLQQNFQDNQFHGKWYVVGRAGNDALREDKDPEKMEATIYELKEDKSYNVTDVGFVQKKCMYVIHTFVPGSQPGEFTLGNIKSYPGVTSALIRVVNTNYNQHAMVFVKLVKQNRELFEITLYGRTKELTSELKENFIRFSKSLGLPENHIVFPVPIDQCIDGSAWSHPQFEK", "4 pM"]
]}

[ask] Consider the binder lipocalin mutein SEQ ID NO: 10 (designed binder, biotinylated by NHS chemistry for capture in SPR) QDSTSDLIPAPPLSKVPLQQNFQDNQFHGKWYVVGWAGNTLLREDKNPTKMQATIYELKEDKSYNATWVYLSEKKCNYHIETSVPGSQPGEFTLGTTKSYPGETPILVRVVSTNYNQHAMVFFKGVSQNREIFEITLYGRTKELTSELKENFIRFSKSLGLPENHIVFPVPIDQCIDGSAWSHPQFEK and give its recorded Kd.
[reply] 76 pM

Source listed as patent US20190338002A1.
